- STUDY_TARGET: small-conductance Ca2+-activated K+ channels (SK channels, subtype 2) (Homo sapiens)
- Construct: expressed in transfected cells; host or cells: HEK293
- PROTOCOL_SUMMARY: whole-cell patch-clamp of ionic current through SK2 channels in HEK293 cells (SC100)
- Format: cell-based
- ASSAY_CONTEXT: whole-cell patch-clamp, HEK293 cells expressing SK2 channels; concentration that increases the basal current by 100%

COMPOUND: Cc1ccn(-c2nc(NC3CCC(F)CC3)cc(N3CC4(COC4)C3)n2)n1 (centres unmarked)
SC100 (μM): + (+ means >1 uM)
--
COMPOUND: COC(=O)N1CC(Oc2cc(N3CC4(CCCCC4)C3)nc(-c3nc(C)cs3)n2)C1
SC100 (μM): + (+ means >1 uM)
